Test system: HS 578T breast
procedure-text: NCI tumour cell line growth inhibition, 48 h
Item-by-item account of TGI

- compound: "CCCC(=O)N(C)N=Nc1ccc(C(=O)OCC)cc1"
  TGI: "> 100 µM"
- compound: "CCOC(CN(C)C(=O)Nc1ccc(Cl)c(Cl)c1)OCC"
  TGI: "> 10 µM"
- compound: "NC(CP(=O)(O)O)C(=O)O (stereo unspecified)"
  TGI: "> 100 µM"
- compound: "CCOC(=O)Nc1ccc2nc(N3CCCCCC3)sc2c1"
  TGI: "> 100 µM"
- compound: "CC(=O)Nc1c2sscc-2n(C)c1=O"
  TGI: "10.3 µM"
- compound: "CCCCCCCCCCCCNC(=O)N[C@H](C(=O)N[C@H]1/C=C/CCNC(=O)/C=C/[C@H](C)NC1=O)C(C)C"
  TGI: "24 µM"
- compound: "CS(=O)(=O)O[C@H]1C(=O)N(c2cc3c4ccccc4ccc3c3ccccc23)[C@@H]1c1ccccn1"
  TGI: "> 100 µM"
- compound: "O=C(NC(=O)c1ccccc1)OC(c1ccccc1)C1CO1 (stereo unspecified)"
  TGI: "> 100 µM"
- compound: "Cc1cc(I)cc(CNCCN2CCOCC2)c1O"
  TGI: "> 100 µM"
- compound: "COc1cccc(C2c3cc4c(cc3OC(NNC(N)=O)C2C)OCO4)c1O (stereo unspecified)"
  TGI: "> 50.8 µM"
- compound: "O=c1c2ccccc2nc2n1CCc1c-2[nH]c2cc3c(cc12)OCO3"
  TGI: "17.5 µM"

* * *

System: BT-549 breast
procedure-text: NCI tumour cell line growth inhibition, 48 h
parameter: log10(TGI) (log10 of the value in µM)

- compound: "O=c1oc2ccc3ccccc3c2cc1-c1nc(-c2ccc([N+](=O)[O-])cc2)n[nH]1"
  log10(TGI): 1.90
- compound: "CCCCCCCCCC(=O)NCCc1c[nH]c2ccc(OC)cc12"
  log10(TGI): 1.52
- compound: "CC(=O)Nc1c2sscc-2n(C)c1=O"
  log10(TGI): 0.44
- compound: "CCOC(=O)C1=C(C)NC(C)=C(C(=O)OCCNC(=O)c2ccc(N=[N+]=[N-])cc2)C1c1ccccc1C(F)(F)F (stereo unspecified)"
  log10(TGI): 1.83
- compound: "C/C(=N\\Nc1nc2ccccc2o1)c1ncccn1"
  log10(TGI): 1.54
- compound: "OCC1C2CCC3(OCCO3)C12 (stereo unspecified)"
  log10(TGI): 1.55

* * *

Test system: NCI-H522 lung
procedure-text: NCI tumour cell line growth inhibition, 48 h
Item-by-item account of log10 of TGI
parameter: log10 of TGI (log10 of the value in µM)

- molecule: "NC(=O)c1cc(I)ccc1NC(=O)/C=C/c1ccccc1Cl"
  log10 of TGI: 0.21
- molecule: "Fc1ccc(Nc2ncc(-c3cc(F)c(Cl)cc3Cl)s2)cc1Cl"
  log10 of TGI: 1.65
- molecule: "COC(=O)CC1C2(C)C3=C(C)C(c4ccoc4)CC3OC2C2OC(=O)C3(C)C=CC(=O)C1(C)C23 (configuration not stated)"
  log10 of TGI: 0.51
- molecule: "CCC(C)C(=O)O[C@H]1C(=O)O[C@@H]2C[C@H]3C(C)=CC(=O)[C@@H](O)[C@]3(C)[C@H]3[C@@H](O)[C@H](O)[C@@]4(C)OC[C@]32[C@@H]14 (some centres not stated)"
  log10 of TGI: -1.11
- molecule: "Cc1c2oc3c(C)cnc(C(=O)NC4C(=O)NC(C(C)C)C(=O)N5CCCC5C(=O)N(C)CC(=O)N(C)C(C(C)C)C(=O)OC4C)c3nc-2c(C(=O)NC2C(=O)NC(C(C)C)C(=O)N3CCCC3C(=O)N(C)CC(=O)N(C)C(C(C)C)C(=O)OC2C)c(N)c1=O (configuration not stated)"
  log10 of TGI: 1.26
- molecule: "C/C(=N\\Nc1nc2ccccc2o1)c1ncccn1"
  log10 of TGI: 1.35
- molecule: "O=[N+]([O-])c1ccc(NNN=Nc2ccc(-c3nc4ccccc4[nH]3)cc2)c([N+](=O)[O-])c1"
  log10 of TGI: 1.79
- molecule: "Cc1cncc(-c2nc(NCCc3c[nH]c4ccccc34)c3ncn(C(C)C)c3n2)c1"
  log10 of TGI: 1.37
- molecule: "O=C1Nc2ccc(O)cc2/C1=C\\c1ccncc1"
  log10 of TGI: 1.58
- molecule: "Cn1nc(-c2ccccc2)c2c(/C=C/c3ccc(Cl)cc3)onc2c1=O"
  log10 of TGI: 1.66
- molecule: "COc1cccc(C2c3cc4c(cc3OC(NNC(N)=O)C2C)OCO4)c1O (configuration not stated)"
  log10 of TGI: 1.04
- molecule: "O=C(NC1CCN(Cc2ccccc2)CC1)c1cccc(I)c1"
  log10 of TGI: 1.52
- molecule: "O=C(/C=C\\c1ccsc1)c1ccccc1"
  log10 of TGI: 0.64
- molecule: "O=C1C(Cl)=C(N2CCN(CCOCCO)CC2)C(=O)c2ccccc21"
  log10 of TGI: 0.55
- molecule: "COC1=CC(c2ccc[nH]2)=N/C1=C\\c1[nH]c(C)c(C(=O)Oc2ccccc2)c1C"
  log10 of TGI: -0.01
- molecule: "O=C(CN(Cc1ccccc1)Cc1ccccc1)N1CCc2c([nH]c3ccccc23)C1c1cccnc1 (configuration not stated)"
  log10 of TGI: 1.87
